Hello, the source for this data is paper PMC2760798, in case you need it.

Target: T1, SfiI D100A (UniProt O52512 1-269, D100A)
T1 sequence: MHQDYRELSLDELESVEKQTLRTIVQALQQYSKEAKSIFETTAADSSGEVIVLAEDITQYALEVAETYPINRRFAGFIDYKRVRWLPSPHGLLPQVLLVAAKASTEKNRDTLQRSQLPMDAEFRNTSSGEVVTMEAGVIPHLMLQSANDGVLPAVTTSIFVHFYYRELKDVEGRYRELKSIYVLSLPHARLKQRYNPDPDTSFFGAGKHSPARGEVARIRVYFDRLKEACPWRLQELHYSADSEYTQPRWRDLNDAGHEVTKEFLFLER
Test: EMSA

Binder: HEX-35 (dsDNA) DNA 1: TCGATCCATGTGGCCAACAAGGCCTATTTGTCGAT DNA 2: ATCGACAAATAGGCCTTGTTGGCCACATGGATCGA
Kd: < 10 nM
